Entries and their hERG current change (%, negative = inhibition) at 10uM
target-desc: human ether-à-go-go-related gene (hERG) potassium channel (human, UniProt Q12809);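 also: peak tail current of the secondary pulse compared with the same well before compound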
Sequence (Q12809 whole entry, looked up): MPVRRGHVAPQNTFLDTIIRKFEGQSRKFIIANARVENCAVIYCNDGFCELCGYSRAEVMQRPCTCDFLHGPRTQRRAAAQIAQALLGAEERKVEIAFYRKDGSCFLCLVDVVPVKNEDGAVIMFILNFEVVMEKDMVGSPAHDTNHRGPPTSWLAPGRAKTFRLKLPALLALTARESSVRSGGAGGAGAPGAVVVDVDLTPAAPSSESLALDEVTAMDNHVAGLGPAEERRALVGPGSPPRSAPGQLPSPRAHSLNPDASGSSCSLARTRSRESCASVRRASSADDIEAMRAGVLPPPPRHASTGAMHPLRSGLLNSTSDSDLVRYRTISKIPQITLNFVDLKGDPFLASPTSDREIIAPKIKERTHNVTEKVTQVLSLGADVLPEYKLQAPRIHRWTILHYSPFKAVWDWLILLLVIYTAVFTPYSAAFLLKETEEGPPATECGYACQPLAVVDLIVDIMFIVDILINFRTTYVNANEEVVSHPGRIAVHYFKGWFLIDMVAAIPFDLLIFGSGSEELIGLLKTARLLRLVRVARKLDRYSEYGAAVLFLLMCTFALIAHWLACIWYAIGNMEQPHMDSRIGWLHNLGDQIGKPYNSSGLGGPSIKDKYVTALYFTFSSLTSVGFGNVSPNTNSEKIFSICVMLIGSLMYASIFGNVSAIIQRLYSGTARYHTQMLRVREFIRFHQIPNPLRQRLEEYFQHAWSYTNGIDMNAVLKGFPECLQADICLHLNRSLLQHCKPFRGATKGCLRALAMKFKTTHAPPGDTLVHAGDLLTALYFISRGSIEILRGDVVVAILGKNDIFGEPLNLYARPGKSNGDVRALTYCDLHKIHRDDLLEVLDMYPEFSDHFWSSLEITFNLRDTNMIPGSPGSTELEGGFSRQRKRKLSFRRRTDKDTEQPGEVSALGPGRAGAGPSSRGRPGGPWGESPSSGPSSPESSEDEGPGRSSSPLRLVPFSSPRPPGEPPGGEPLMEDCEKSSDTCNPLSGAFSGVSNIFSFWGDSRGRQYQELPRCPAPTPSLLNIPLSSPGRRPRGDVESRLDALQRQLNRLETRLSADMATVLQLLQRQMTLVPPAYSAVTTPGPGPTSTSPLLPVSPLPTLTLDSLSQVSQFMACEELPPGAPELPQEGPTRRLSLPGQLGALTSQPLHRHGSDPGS
assay-procedure: primary screen, population patch clamp on CHO cells stably expressing hERG; higher = less effect of the substance
The campaign covered roughly 310,000 compounds. About 14,000 (4.5%) showed an effect of 50% or more. The effect is printed as a negative number. This is one part of a sample in which strong results are shown more often than they occur.
Numbers only; they are read as %.

[
  {
    "chemical-structure": "O=C(c1ccc(-c2nc3ccccc3s2)o1)N1CCN(c2ccccc2O)CC1",
    "target-desc": "human ether-à-go-go-related gene (hERG) potassium channel (human, UniProt Q12809)",
    "reported-result": 11.6
  },
  {
    "chemical-structure": "NS(=O)(=O)c1ccc(CNC(=O)CSc2ccccc2)cc1",
    "target-desc": "human ether-à-go-go-related gene (hERG) potassium channel (human, UniProt Q12809)",
    "reported-result": 14.5
  },
  {
    "chemical-structure": "O=C(CN1CCN(Cc2ccc(F)cc2)CC1)Nc1nc2ccccc2s1",
    "target-desc": "human ether-à-go-go-related gene (hERG) potassium channel (human, UniProt Q12809)",
    "reported-result": -69.3
  }
]

query: Read the entry CCc1nnc(NC(=O)CCC(=O)NC2CCCCC2)s1 and write its reported hERG current change (%, negative = inhibition) at 10uM.
result: 15.8

query: Return hERG current change (%, negative = inhibition) at 10uM (reported value) for this compound: CCOC(=O)c1nnn(-c2nonc2N)c1COc1c(C=O)cccc1OC
result: -6.2
